Data provenance: patent US20230286968A1

Assay: Cytotoxicity in PHH natural infection assay (Cell Counting Kit-8)
Format: cell-based
Details: HBV-infected primary human hepatocytes, CCK8
experimental readout: CC50 at 144 h

Known results for compounds:
O=C(NC1CC2(C1)CC(c1nc3cc(Cl)ccc3o1)C2)C1CCS(=O)(=O)C1 (stereo not shown) : > 100 µM
CCN(C)c1cc(C(=O)NC2CC3(C2)CC(c2nc4cc(Cl)ccc4o2)C3)ccn1 (stereo not shown) : > 10 µM
O=C(NC1CC2(C1)CC(c1nc3cc(Cl)cnc3o1)C2)c1ccnc(S(=O)(=O)C2CC2)c1 (stereo not shown) : > 10 µM
NS(=O)(=O)c1cc(C(=O)NC2CC3(C2)CC(c2nc4cc(Cl)ccc4o2)C3)ccn1 (stereo not shown) : > 10 µM
O=C(NC1CC2(C1)CC(c1nc3cc(Cl)ccc3o1)C2)c1ccnc(S(=O)(=O)C2CC2)c1 (stereo not shown) : 90.5 µM
O=C(NC1CC2(C1)CC(c1nc3cc(C(F)(F)F)ccc3o1)C2)C1CCS(=O)(=O)CC1 (stereo not shown) : > 100 µM
[H][C@]1(NC(=O)c2ccnc(S(C)(=O)=O)c2)C[C@]2(C1)C[C@]([H])(c1nc3cc(Cl)ccc3o1)C2 (single isomer, unassigned) : > 10 µM
CN1CC(C(=O)NC2CC3(C2)CC(c2nc4cc(Cl)ccc4o2)C3)CC1=O (stereo not shown) : > 100 µM

Query: Tell me its CC50 at 144 h given O=C(NC1CC2(C1)CC(c1nc3cc(Cl)ccc3o1)C2)c1ccnc(S(=O)(=O)C2COC2)c1 (stereo not shown) as the entry.
Reply: > 10 µM

Query: Provide only the value of recorded CC50 at 144 h for COc1cc(C(=O)NC2CC3(C2)CC(c2nc4cc(Cl)ccc4o2)C3)ccn1 (stereo not shown)
Reply: > 10 µM

----------
A collection of compounds and their measured CC50 at 144 h
Assay: Cytotoxicity in PHH natural infection assay (Cell Counting Kit-8)
Assay type: cell-based
Settings: HBV-infected primary human hepatocytes, CCK8
Experimental: Detailed procedures regarding primary human hepatocyte (PHH) HBV natural infection assay are described as below. […] HBsAg and HBeAg were detected using alphalisa method using their specific antibodies. For HBV DNA detection, HBV DNA Quantitative Fluorescence Diagnostic Kit (Sansure Biotech Inc.) was used following the manufacture's protocol. Cytotoxicity was determined using Cell Counting Kit-8 (CCK8, Dojindo Molecular Technologies, Inc.).

Query: Fill in CC50 at 144 h for record N=C(N)c1cc(C(=O)NC2CC3(C2)CC(c2nc4cc(Cl)ccc4o2)C3)ccn1 (stereo not shown)
Reply: > 10 µM

Query: Please list CC50 at 144 h recorded for the compound O=C(NC1CCOC1)NC1CC2(C1)CC(c1nc3cc(Cl)ccc3o1)C2 (stereo not shown)
Reply: > 100 µM

Query: In one line, give reported CC50 at 144 h of the entry CN1CCC(C(=O)NC2CC3(C2)CC(c2nc4cc(Cl)ccc4o2)C3)CC1=O (stereo not shown) .
Reply: > 100 µM

Query: Tell me measured CC50 at 144 h for [H][C@]1(NC(=O)c2ccnc(S(C)(=O)=O)c2)C[C@@]2(C1)C[C@]([H])(c1nc3cc(Cl)ccc3o1)C2 (single isomer, unassigned) please.
Reply: > 10 µM

Query: Give me measured CC50 at 144 h, please, for this compound: O=C(NC1CC2(C1)CC(c1nc3cc(Cl)ccc3o1)C2)C1CCS(=O)(=O)N1 (stereo not shown)
Reply: > 100 µM

Query: Given the compound O=C(NC1CC2(C1)CC(c1nc3cc(Cl)ccc3o1)C2)c1ccnc(N2CCS(=O)(=O)CC2)c1 (stereo not shown) , write its reported CC50 at 144 h.
Reply: > 10 µM

Query: Quick one: give measured CC50 at 144 h for [H][C@]1(NC(=O)c2ccnc(S(=O)(=O)C3CC3)c2)C[C@]2(C1)C[C@]([H])(c1nc3cc(Cl)ccc3o1)C2 (single isomer, unassigned) [Example 84a]
Reply: 84.3 µM
